Where do the numbers come from? From the supplement of paper PMC4862054.

# maps each entry to its normalised viability
- Test system: MDA-MB-436
- ASSAY_DETAILS: normalised viability (% of control), CellTiter-Blue; higher = more viable cells (about 100 = DMSO control)
- TEST_CONDITIONS: 1000 nM; incubation time: 72 h
A number alone suffices; assume %.

// below: answered molecules
SUBSTANCE_SMILES	UNIT	VALUE_REPORTED
Oc1ncc(N(CCCl)CCCl)c(O)n1	%	76.6
CC1=C(/C=C/C(C)=C/C=C/C(C)=C/C(=O)O)C(C)(C)CCC1	%	81.6
O=C(O)C(=O)O.[NH-][C@@H]1CCCC[C@H]1[NH-].[Pt+2]	%	88.6
COc1cc2nccc(Oc3ccc(NC(=O)Nc4cc(C)on4)c(Cl)c3)c2cc1OC	%	97.1

[ask] Can you share its normalised viability? I mean this molecule: `O=C(Cc1ccc(-c2ccc(OCCN3CCOCC3)cc2)cn1)NCc1ccccc1`
[reply] 56.6

[ask] Any idea what normalised viability was measured for `NCCCNCCSP(=O)(O)O` ?
[reply] 91.8

[ask] Would you kindly share the measured normalised viability for `C=CC(=O)Nc1cc2c(Nc3ccc(F)c(Cl)c3)ncnc2cc1OCCCN1CCOCC1` ?
[reply] 43.5

* * *

- Test system: MDA-MB-453
- ASSAY_DETAILS: normalised viability (% of control), CellTiter-Blue; higher = more viable cells (100 = DMSO, 0 = benzethonium chloride kill control)
- TEST_CONDITIONS: 1 nM; incubation time: 72 h
Listed next: entries and their corresponding normalised viability.
Quick reminder: number only, in %, skip the unit.

Past entries and their recorded results:
COMPOUND	normalised viability, %
C1CN1c1nc(N2CC2)nc(N2CC2)n1	104
COc1cc2nccc(Oc3ccc(NC(=O)Nc4cc(C)on4)c(Cl)c3)c2cc1OC	97.4
Nc1nc(F)nc2c1ncn2[C@@H]1O[C@H](CO)[C@@H](O)[C@@H]1O	102
CCN(CC)CCCC(C)Nc1c2ccc(Cl)cc2nc2ccc(OC)cc12 (stereo not given)	106

Now for another entry.
[ask] Entry `O=C(O)C(=O)O.[NH-][C@@H]1CCCC[C@H]1[NH-].[Pt+2]` , system MDA-MB-453: what normalised viability was measured?
[reply] 100

* * *

The entries below come with measured normalised response values attached.
- System: MCF-10A
- ASSAY_DETAILS: normalised response (% of control), CellTiter-Glo; higher = more viable cells (100 = DMSO, 0 = benzethonium chloride kill control)
- TEST_CONDITIONS: incubation time: 72 h
Give the value, in units of %, as a plain number.

Some solved entries appear below for comparison.
MOLECULE	UNIT	VALUE_REPORTED
C=CCc1cccc(/C=N/NC(=O)CN2CCN(Cc3ccccc3)CC2)c1O [PAC-1] (100 nM)	%	111
CC[C@H](C)C(=O)O[C@H]1C[C@H](O)C=C2C=C[C@H](C)[C@H](CC[C@@H](O)C[C@@H](O)CC(=O)O)[C@H]21 [Pravastatin] (100 nM)	%	97.4
CC1=C(/C=C/C(C)=C/C=C/C(C)=C/C(=O)O)C(C)(C)CCC1 [Tretinoin] (100 nM)	%	88.7
O=C(O)CCCCC(CCSCc1ccccc1)SCc1ccccc1 (stereo unspecified) [CPI-613] (100 nM)	%	107
CC[C@H](Nc1ncnc2[nH]cnc12)c1nc2cccc(F)c2c(=O)n1-c1ccccc1 [GS-1101] (100 nM)	%	84.1

From here, focus on the item given below.
[ask] Reported normalised response, molecule CCc1cncnc1N1CCN(Cc2nc3ccc(C(F)(F)F)cc3[nH]2)CC1 (100 nM) : ____
[reply] 108
